Listing: MIC P. aeruginosa P1021903 of selected molecules
# System: Pseudomonas aeruginosa P1021903
# Format: cell-based
# condition details: P1021903
Non-standard residues stand in square brackets, D forms with d. Residues, ends and D or L forms follow the SMILES beside them. Dab = NCC[C@H](N)C(=O)O
Reply with just the number (in µg/mL).

molecule: CC[C@H](C)[C@@H]1NC(=O)[C@H](Cc2c[nH]c3ccccc23)NC(=O)[C@H]([C@@H](C)O)NC(=O)[C@@H]2CCCN2C(=O)[C@H]2CCCN2C(=O)[C@H](CCN)NC(=O)[C@@H](C(C)C)NC(=O)[C@H](CCN)NC(=O)[C@H](CCN)NC(=O)[C@H](Cc2c[nH]c3ccccc23)NC(=O)[C@H](CCN)NC(=O)[C@H](CCN)NC(=O)[C@H](CCCCN)NC(=O)[C@H](CCN)NC1=O [Example 4] (cyclo(TWI[Dab]K[Dab][Dab]W[Dab][Dab][dV][Dab][dP]P))
MIC P. aeruginosa P1021903 [µg/mL]: 1.50

Lab note: next molecule to report on.
Report MIC P. aeruginosa P1021903 for CC[C@H](C)[C@@H]1NC(=O)[C@H](Cc2c[nH]c3ccccc23)NC(=O)[C@H]([C@@H](C)O)NC(=O)[C@@H]2CCCN2C(=O)[C@H]2CCCN2C(=O)[C@H](CCC(N)=O)NC(=O)[C@H](C)NC(=O)[C@H](CCN)NC(=O)[C@H](CCN)NC(=O)[C@H](Cc2c[nH]c3ccccc23)NC(=O)[C@H](CCN)NC(=O)[C@H](CCN)NC(=O)[C@H](CCCCN)NC(=O)[C@H](CCC(N)=O)NC1=O [Example 40] (cyclo(TWIQK[Dab][Dab]W[Dab][Dab]AQ[dP]P)) please.
0.50

* * *

Listing: Average MIC of selected molecules
# Tested on: P. aeruginosa
Non-standard residues stand in square brackets, D forms with d. Residues, ends and D or L forms follow the SMILES beside them. Cit = NC(=O)NCCC[C@H](N)C(=O)O; dDab = NCC[C@@H](N)C(=O)O; Orn = NCCC[C@H](N)C(=O)O; Dab = NCC[C@H](N)C(=O)O
Reply with just the number (in µg/mL).

molecule: CC[C@H](C)[C@@H]1NC(=O)[C@H](Cc2ccc(O)cc2)NC(=O)[C@H](CC(=O)O)NC(=O)[C@@H]2CCCN2C(=O)[C@H]2CCCN2C(=O)[C@H](CCN)NC(=O)[C@H](C)NC(=O)[C@H](CCN)NC(=O)[C@H](CCN)NC(=O)[C@H](Cc2c[nH]c3ccccc23)NC(=O)[C@H](CCN)NC(=O)[C@@H](CCN)NC(=O)[C@H](CCCN)NC(=O)[C@H](CCN)NC1=O [Example 43] (cyclo(DYI[Dab][Orn][dDab][Dab]W[Dab][Dab]A[Dab][dP]P))
tested target: P. aeruginosa
Average MIC / µg/mL: 0.95

Reported Average MIC for P. aeruginosa, given CC[C@H](C)[C@@H]1NC(=O)[C@H](Cc2c[nH]c3ccccc23)NC(=O)[C@H]([C@@H](C)O)NC(=O)[C@@H]2CCCN2C(=O)[C@H]2CCCN2C(=O)[C@H](CCN)NC(=O)[C@H](C)NC(=O)[C@H](CCN)NC(=O)[C@H](CCN)NC(=O)[C@H](Cc2c[nH]c3ccccc23)NC(=O)[C@H](CCN)NC(=O)[C@H](CCCCN)NC(=O)[C@H](CCCCN)NC(=O)[C@H](CCN)NC1=O [Example 25] (cyclo(TWI[Dab]KK[Dab]W[Dab][Dab]A[Dab][dP]P)) ?
0.11

Reported Average MIC for P. aeruginosa, given CC[C@H](C)[C@@H]1NC(=O)[C@H](Cc2c[nH]c3ccccc23)NC(=O)[C@H]([C@@H](C)O)NC(=O)[C@@H]2CCCN2C(=O)[C@H]2CCCN2C(=O)[C@H](CCN)NC(=O)[C@H](C(C)C)NC(=O)[C@H](CCN)NC(=O)[C@H](CCN)NC(=O)[C@H](Cc2c[nH]c3ccccc23)NC(=O)[C@H](CCN)NC(=O)[C@H](CCN)NC(=O)[C@H](CCCCN)NC(=O)[C@H](CCC(N)=O)NC1=O [Example 30] (cyclo(TWIQK[Dab][Dab]W[Dab][Dab]V[Dab][dP]P)) ?
0.60

Reported Average MIC for P. aeruginosa, given CC[C@H](C)[C@@H]1NC(=O)[C@H](Cc2c[nH]c3ccccc23)NC(=O)[C@H](CCCNC(N)=O)NC(=O)[C@@H]2CCCN2C(=O)[C@H]2CCCN2C(=O)[C@H](CCN)NC(=O)[C@H](C)NC(=O)[C@H](CCN)NC(=O)[C@H](CCN)NC(=O)[C@H](Cc2c[nH]c3ccccc23)NC(=O)[C@H](CCN)NC(=O)[C@H](CCN)NC(=O)[C@H](CCCCN)NC(=O)[C@H](CCN)NC1=O [Example 18] (cyclo([Cit]WI[Dab]K[Dab][Dab]W[Dab][Dab]A[Dab][dP]P)) ?
0.28

* * *

# Test system: P. aeruginosa ATCC 27853
# Format: cell-based, Pseudomonas aeruginosa
# condition details: ATCC 27853
Non-standard residues stand in square brackets, D forms with d. Residues, ends and D or L forms follow the SMILES beside them. Dab = NCC[C@H](N)C(=O)O
Listing: MIC P. aeruginosa ATCC 27853 of selected molecules
Reply with just the number (in µg/mL).

molecule: CC[C@H](C)[C@@H]1NC(=O)[C@H](Cc2c[nH]c3ccccc23)NC(=O)[C@H]([C@@H](C)O)NC(=O)[C@@H]2CCCN2C(=O)[C@H]2CCCN2C(=O)[C@H](CCCCN)NC(=O)[C@H](C)NC(=O)[C@H](CCN)NC(=O)[C@H](CCN)NC(=O)[C@H](Cc2c[nH]c3ccccc23)NC(=O)[C@H](CCN)NC(=O)[C@H](CCN)NC(=O)[C@H](CCCCN)NC(=O)[C@H](CCN)NC1=O [Example 28] (cyclo(TWI[Dab]K[Dab][Dab]W[Dab][Dab]AK[dP]P))
tested target: P. aeruginosa ATCC 27853
unit label: µg/mL
MIC P. aeruginosa ATCC 27853: 0.04

Lab note: next molecule to report on.
Report MIC P. aeruginosa ATCC 27853 for CC[C@H](C)[C@@H]1NC(=O)[C@H](Cc2c[nH]c3ccccc23)NC(=O)[C@H]([C@@H](C)O)NC(=O)[C@@H]2CCCN2C(=O)[C@H]2CCCN2C(=O)[C@H](CCN)NC(=O)[C@H](CC(C)C)NC(=O)[C@H](CCN)NC(=O)[C@H](CCN)NC(=O)[C@H](Cc2c[nH]c3ccccc23)NC(=O)[C@H](CCN)NC(=O)[C@H](CCN)NC(=O)[C@H](CCCCN)NC(=O)[C@H](CCN)NC1=O [Example 7] (cyclo(TWI[Dab]K[Dab][Dab]W[Dab][Dab]L[Dab][dP]P)) please.
0.13

* * *

# System: HELA cells (Acc57)
# run description: Cytotoxicity assay, MTT reduction (LC 50, GI 50)
# Assay type: cell-based
Non-standard residues stand in square brackets, D forms with d. Residues, ends and D or L forms follow the SMILES beside them. Ala(cPr) = N[C@@H](CC1CC1)C(=O)O; Cha = N[C@@H](CC1CCCCC1)C(=O)O; dDab = NCC[C@@H](N)C(=O)O; hSer = N[C@@H](CCO)C(=O)O; Orn = NCCC[C@H](N)C(=O)O; Dab = NCC[C@H](N)C(=O)O
Listing: Cytotoxicity GI50 Hela cells of selected molecules
Reply with just the number (in µM).

Guide cases for Cytotoxicity GI50 Hela cells, answers given:
molecule: CC[C@H](C)[C@@H]1NC(=O)[C@H](Cc2c[nH]c3ccccc23)NC(=O)[C@H]([C@@H](C)O)NC(=O)[C@@H]2CCCN2C(=O)[C@H]2CCCN2C(=O)[C@H](CCN)NC(=O)[C@@H](C(C)C)NC(=O)[C@H](CCN)NC(=O)[C@H](CCN)NC(=O)[C@H](Cc2c[nH]c3ccccc23)NC(=O)[C@H](CCN)NC(=O)[C@H](CCN)NC(=O)[C@H](CCCCN)NC(=O)[C@H](CCN)NC1=O [Example 4] (cyclo(TWI[Dab]K[Dab][Dab]W[Dab][Dab][dV][Dab][dP]P))
measured result: 40
--
molecule: C[C@@H]1NC(=O)[C@H](CCN)NC(=O)[C@H](CCN)NC(=O)[C@H](Cc2c[nH]c3ccccc23)NC(=O)[C@H](CCN)NC(=O)[C@H](CCN)NC(=O)[C@H](CCCCN)NC(=O)[C@H](CCN)NC(=O)[C@H](CC2CCCCC2)NC(=O)[C@H](Cc2c[nH]c3ccccc23)NC(=O)[C@H]([C@@H](C)O)NC(=O)[C@@H]2CCCN2C(=O)[C@H]2CCCN2C(=O)[C@H](CCN)NC1=O [Example 34] (cyclo(TW[Cha][Dab]K[Dab][Dab]W[Dab][Dab]A[Dab][dP]P))
measured result: 50
--
molecule: CC[C@H](C)[C@@H]1NC(=O)[C@H](Cc2c[nH]c3ccccc23)NC(=O)[C@H]([C@@H](C)O)NC(=O)[C@@H]2CCCN2C(=O)[C@H]2CCCN2C(=O)[C@H](CCN)NC(=O)[C@H](CCO)NC(=O)[C@H](CCN)NC(=O)[C@H](CCN)NC(=O)[C@H](Cc2c[nH]c3ccccc23)NC(=O)[C@H](CCN)NC(=O)[C@H](CCN)NC(=O)[C@H](CCCCN)NC(=O)[C@H](CCN)NC1=O [Example 35] (cyclo(TWI[Dab]K[Dab][Dab]W[Dab][Dab][hSer][Dab][dP]P))
measured result: 48
--
molecule: CC[C@H](C)[C@@H]1NC(=O)[C@H](Cc2c[nH]c3ccccc23)NC(=O)[C@H]([C@@H](C)O)NC(=O)[C@@H]2CCCN2C(=O)[C@H]2CCCN2C(=O)[C@H](CCN)NC(=O)[C@H](CC2CC2)NC(=O)[C@H](CCN)NC(=O)[C@H](CCN)NC(=O)[C@H](Cc2c[nH]c3ccccc23)NC(=O)[C@H](CCN)NC(=O)[C@H](CCN)NC(=O)[C@H](CCCCN)NC(=O)[C@H](CCN)NC1=O [Example 37] (cyclo(TWI[Dab]K[Dab][Dab]W[Dab][Dab][Ala(cPr)][Dab][dP]P))
measured result: 50
--
molecule: CC[C@H](C)[C@@H]1NC(=O)[C@H](Cc2c[nH]c3ccccc23)NC(=O)[C@H]([C@@H](C)O)NC(=O)[C@@H]2CCCN2C(=O)[C@H]2CCCN2C(=O)[C@H](CCN)NC(=O)[C@H](CCC(N)=O)NC(=O)[C@H](CCN)NC(=O)[C@H](CCN)NC(=O)[C@H](Cc2c[nH]c3ccccc23)NC(=O)[C@H](CCN)NC(=O)[C@H](CCN)NC(=O)[C@H](CCCCN)NC(=O)[C@H](CCN)NC1=O [Example 13] (cyclo(TWI[Dab]K[Dab][Dab]W[Dab][Dab]Q[Dab][dP]P))
measured result: 50

Report Cytotoxicity GI50 Hela cells for CC[C@H](C)[C@@H]1NC(=O)[C@H](Cc2c[nH]c3ccccc23)NC(=O)[C@H]([C@@H](C)O)NC(=O)[C@@H]2CCCN2C(=O)[C@H]2CCCN2C(=O)[C@H](CCN)NC(=O)[C@H](CC(N)=O)NC(=O)[C@H](CCN)NC(=O)[C@H](CCN)NC(=O)[C@H](Cc2c[nH]c3ccccc23)NC(=O)[C@H](CCN)NC(=O)[C@H](CCN)NC(=O)[C@H](CCCCN)NC(=O)[C@H](CCN)NC1=O [Example 38] (cyclo(TWI[Dab]K[Dab][Dab]W[Dab][Dab]N[Dab][dP]P)) please.
50

Report Cytotoxicity GI50 Hela cells for CC[C@H](C)[C@@H]1NC(=O)[C@H](Cc2c[nH]c3ccccc23)NC(=O)[C@H]([C@@H](C)O)NC(=O)[C@@H]2CCCN2C(=O)[C@H]2CCCN2C(=O)[C@H](CO)NC(=O)[C@H](C)NC(=O)[C@H](CCN)NC(=O)[C@H](CCN)NC(=O)[C@H](Cc2c[nH]c3ccccc23)NC(=O)[C@H](CCN)NC(=O)[C@@H](CCN)NC(=O)[C@H](CCCN)NC(=O)[C@H](CCN)NC1=O [Example 49] (cyclo(TWI[Dab][Orn][dDab][Dab]W[Dab][Dab]AS[dP]P)) please.
50

Report Cytotoxicity GI50 Hela cells for CC[C@H](C)[C@@H]1NC(=O)[C@H](Cc2c[nH]c3ccccc23)NC(=O)[C@H]([C@@H](C)O)NC(=O)[C@@H]2CCCN2C(=O)[C@H]2CCCN2C(=O)[C@H](CCN)NC(=O)[C@H]([C@@H](C)CC)NC(=O)[C@H](CCN)NC(=O)[C@H](CCN)NC(=O)[C@H](Cc2c[nH]c3ccccc23)NC(=O)[C@H](CCN)NC(=O)[C@H](CCN)NC(=O)[C@H](CCCCN)NC(=O)[C@H](CCN)NC1=O [Example 8] (cyclo(TWI[Dab]K[Dab][Dab]W[Dab][Dab]I[Dab][dP]P)) please.
50

Report Cytotoxicity GI50 Hela cells for CC[C@H](C)[C@@H]1NC(=O)[C@H](Cc2c[nH]c3ccccc23)NC(=O)[C@H]([C@@H](C)O)NC(=O)[C@@H]2CCCN2C(=O)[C@H]2CCCN2C(=O)[C@H](CCN)NC(=O)[C@H](C)NC(=O)[C@H](CCN)NC(=O)[C@H](CCN)NC(=O)[C@H](Cc2c[nH]c3ccccc23)NC(=O)[C@H](CCN)NC(=O)[C@H](CCN)NC(=O)[C@H](CCCCN)NC(=O)[C@H](CCC(N)=O)NC1=O [Example 29] (cyclo(TWIQK[Dab][Dab]W[Dab][Dab]A[Dab][dP]P)) please.
50
